biological target: human alpha2C receptors (Homo sapiens, UniProt P18825); assay: Determination of alpha2C antagonistic activity in vitro (FLIPR calcium assay)
Sequence (P18825 whole entry): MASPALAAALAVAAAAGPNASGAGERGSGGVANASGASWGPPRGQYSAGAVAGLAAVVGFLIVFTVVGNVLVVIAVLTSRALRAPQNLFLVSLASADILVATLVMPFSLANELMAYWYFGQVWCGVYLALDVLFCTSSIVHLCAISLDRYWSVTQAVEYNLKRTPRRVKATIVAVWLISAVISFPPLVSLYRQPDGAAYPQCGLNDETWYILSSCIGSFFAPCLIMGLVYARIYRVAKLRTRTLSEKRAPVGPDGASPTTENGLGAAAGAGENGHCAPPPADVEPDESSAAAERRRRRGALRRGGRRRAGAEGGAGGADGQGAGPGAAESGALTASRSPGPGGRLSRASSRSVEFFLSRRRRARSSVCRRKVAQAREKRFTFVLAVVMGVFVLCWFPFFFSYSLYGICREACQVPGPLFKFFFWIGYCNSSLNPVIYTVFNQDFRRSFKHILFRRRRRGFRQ
Endpoint Label: IC50 (nM)

Sample answers from the record:
1. O=c1[nH]c2ccccc2c(=O)n1[C@H]1CCCN(C[C@H]2COc3ccccc3O2)C1 [example 72] :: 0.124
2. Cc1nc2cncnc2n1[C@H]1CCCN(C[C@H]2COc3ccccc3O2)C1 [example 160] :: 0.15

[a] CC(C)CN1C(=O)C(=O)N([C@H]2CCCN(C[C@H]3COc4ccccc4O3)C2)C1=O [example 141]
[b] O=C1C(=O)N([C@H]2CCCN(C[C@H]3COc4ccccc4O3)C2)C(=O)N1Cc1ccccc1 [example 131]
[c] O=C1C=C(c2ccc(F)cc2)CN1[C@H]1CCCN(C[C@H]2COc3ccccc3O2)C1 [example 41]
*Q* Sort the 3 compounds by IC50; largest first, smallest last. Provide the labels, sequenced as the question asks.
*A* c, b, a

====

target: human alpha2C receptors (Homo sapiens); experiment: Determination of alpha2C antagonistic activity in vitro (FLIPR calcium assay); settings: Alpha 2C Adrenaline Kb, Kb calculated from IC50 with the Cheng-Prusoff equation; adrenaline as agonist; CHO cells, human alpha2C
Endpoint Label: Kb (nM)

1) C[C@H]1C(=O)N([C@H]2CCCN(C[C@H]3COc4ccccc4O3)C2)C(=O)[C@@H]1C :: 0.18
2) CC1=C(c2ccccc2)C(=O)N([C@H]2CCCN(C[C@H]3COc4ccccc4O3)C2)C1 :: 33.3
3) O=C1C=C(c2ccccc2)CN1[C@H]1CCCN(C[C@H]2COc3ccccc3O2)C1 :: 0.181

[P] O=C1NC2(CC2)C(=O)N1[C@H]1CCCN(C[C@H]2COc3ccccc3O2)C1
[Q] O=C1c2ncncc2CN1[C@H]1CCCN(C[C@H]2COc3ccccc3O2)C1
[R] CC1(C)CCN([C@H]2CCCN(C[C@H]3COc4ccccc4O3)C2)S1(=O)=O
*Q* Ordering: ascending Kb. Provide the labels, sequenced as the question asks.
*A* P, R, Q

====

biological target: human alpha2C receptors (Homo sapiens, UniProt P18825); assay: Determination of alpha2C antagonistic activity in vitro (FLIPR calcium assay); conditions: Alpha 2C Adrenaline Kb, Kb calculated from IC50 with the Cheng-Prusoff equation; adrenaline as agonist; CHO cells, human alpha2C
Endpoint Label: Kb (pM)

1) c1ccc2c(c1)OC[C@H](CN1CCC[C@H](n3nnc4ccccc43)C1)O2 :: 90

[1] CC(C)C1CN([C@H]2CCCN(C[C@H]3COc4ccccc4O3)C2)C(=O)O1 (some centres unmarked)
[2] O=C1C2C3C=CC(C3)C2C(=O)N1[C@H]1CCCN(C[C@H]2COc3ccccc3O2)C1 (some centres unmarked)
[3] CN(C)Cc1nc2ccc(Cl)cc2n1[C@H]1CCCN(C[C@H]2COc3ccccc3O2)C1
[4] CC(C)(C)N1CC(=O)N([C@H]2CCCN(C[C@H]3COc4ccccc4O3)C2)C1=O
*Q* Ordering: ascending Kb. Provide the labels, sequenced as the question asks.
*A* 2, 4, 1, 3
(2: 2 pM, 4: 202 pM, 1: 771 pM, 3: 7030 pM)

====

// values below are reported IC50
target: human alpha2A receptors (Homo sapiens, UniProt P08913); assay: cell-based
Sequence (P08913 whole entry): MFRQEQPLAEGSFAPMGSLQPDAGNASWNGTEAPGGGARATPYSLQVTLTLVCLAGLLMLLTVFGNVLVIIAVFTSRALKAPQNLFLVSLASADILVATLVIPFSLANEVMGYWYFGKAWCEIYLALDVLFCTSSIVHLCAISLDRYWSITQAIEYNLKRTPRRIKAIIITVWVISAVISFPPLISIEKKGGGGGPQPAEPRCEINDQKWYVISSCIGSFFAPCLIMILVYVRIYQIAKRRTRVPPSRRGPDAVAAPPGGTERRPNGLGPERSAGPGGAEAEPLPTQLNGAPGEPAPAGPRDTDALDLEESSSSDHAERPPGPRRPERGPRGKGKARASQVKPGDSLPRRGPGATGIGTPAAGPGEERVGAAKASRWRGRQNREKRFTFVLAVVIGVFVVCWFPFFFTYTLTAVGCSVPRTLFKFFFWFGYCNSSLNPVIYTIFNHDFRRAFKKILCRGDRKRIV
Structures can show the parent of a compound that is named as a salt.

1. CC(C)c1nc2ccc(F)cc2n1[C@H]1CCCN(C[C@H]2COc3ccccc3O2)C1 :: > 10 µM

*Q* Requested read-out IC50, target or system human alpha2A receptors (Homo sapiens, UniProt P08913), entry O=C1C2CCCC2C(=O)N1[C@H]1CCCN(C[C@H]2COc3ccccc3O2)C1 (some centres unmarked) [example 92, hydrochloride]
*A* > 10 µM

*Q* Requested read-out IC50, target or system human alpha2A receptors (Homo sapiens, UniProt P08913), entry `O=C1NC2(CC2)C(=O)N1[C@H]1CCCN(C[C@H]2COc3ccccc3O2)C1`
*A* 1.38 µM

*Q* Requested read-out IC50, target or system human alpha2A receptors (Homo sapiens, UniProt P08913), entry `O=C1C(=O)N([C@H]2CCCN(C[C@H]3COc4ccccc4O3)C2)C(=O)N1C1CCCCC1`
*A* 3.89 µM

*Q* Requested read-out IC50, target or system human alpha2A receptors (Homo sapiens, UniProt P08913), entry `c1ccc2c(c1)OC[C@H](CN1CCC[C@H](n3cnc4cncnc43)C1)O2`
*A* > 10 µM

*Q* Requested read-out IC50, target or system human alpha2A receptors (Homo sapiens, UniProt P08913), entry `C[C@]1(c2ccccc2)CCN([C@H]2CCCN(C[C@H]3COc4ccccc4O3)C2)C1=O`
*A* 5.84 µM

*Q* Requested read-out IC50, target or system human alpha2A receptors (Homo sapiens, UniProt P08913), entry O=C1c2cccc(F)c2C(=O)N1[C@H]1CCCN(C[C@H]2COc3ccccc3O2)C1 [example 63, hydrochloride]
*A* > 10 µM

*Q* Requested read-out IC50, target or system human alpha2A receptors (Homo sapiens, UniProt P08913), entry `CN1C(=O)N([C@H]2CCCN(C[C@H]3COc4ccccc4O3)C2)CC1(C)C`
*A* > 10 µM
